Taken from ChEMBL document CHEMBL1144242.

In this section, each of the molecules is paired with its reported IC90.
Test system: Mycobacterium tuberculosis
Assay: Antitubercular activity against Mycobacterium tuberculosis H37Rv after 4 days by microplate alamar blue assay
Type: functional
Conditions: 96 h
Reported Endpoint: IC90

[[record]]
smiles = "CCCCNC(=S)N/N=C1\\C(=O)Nc2ccc(C)cc21"
assay_target = "Mycobacterium tuberculosis"
reported_endpoint = "IC90"
meas_value = "0.911 µg/mL"

[[record]]
smiles = "CNC(=S)N/N=C1\\C(=O)N(C)c2ccc(C)cc21"
assay_target = "Mycobacterium tuberculosis"
reported_endpoint = "IC90"
meas_value = "> 100 µg/mL"

[[record]]
smiles = "Cc1ccc2c(c1)/C(=N/NC(=S)NCc1ccccc1)C(=O)N2C"
assay_target = "Mycobacterium tuberculosis"
reported_endpoint = "IC90"
meas_value = "> 100 µg/mL"

[[record]]
smiles = "Cc1ccc2c(c1)/C(=N/NC(=S)Nc1cccc(Br)c1)C(=O)N2C"
assay_target = "Mycobacterium tuberculosis"
reported_endpoint = "IC90"
meas_value = "> 100 µg/mL"

[[record]]
smiles = "CNC(=S)N/N=C1\\C(=O)N(C)c2ccc(OC(F)(F)F)cc21"
assay_target = "Mycobacterium tuberculosis"
reported_endpoint = "IC90"
meas_value = "> 100 µg/mL"

[[record]]
smiles = "COc1ccc(NC(=S)N/N=C2\\C(=O)N(CN3CCOCC3)c3ccc(OC(F)(F)F)cc32)cc1"
assay_target = "Mycobacterium tuberculosis"
reported_endpoint = "IC90"
meas_value = "> 100 µg/mL"

